Each recorded value in this set is attributed to patent US11608335B2.

tested_target: UniProt:P35346
experimental_details: cAMP assay for SST5R (inhibition of cAMP via human SST5 receptor)
pEC50: −log10 of the molar value.
Below, each entry is listed with its recorded pEC50.

Solved cases below.
compound: CC1(N)CCN(c2c(-c3cccc(-n4ccnc4)c3)cncc2-c2nc3cccc(F)c3[nH]2)C1 (centres unmarked)
tested_target: UniProt:P35346
pEC50: 7.00 to 8.00

compound: Cc1cccc2c1nc(-c1cncc(-c3ccc(F)c(C#N)c3)c1N1CC[C@H](N)C1)n2C
tested_target: UniProt:P35346
pEC50: > 8.00

compound: Cc1ccc(F)c(-c2cncc(-c3nc4cc(F)cc(F)c4[nH]3)c2N2CC(CN)C2)c1
tested_target: UniProt:P35346
pEC50: 7.00 to 8.00

compound: CC1(N)CCN(c2c(-c3ccnc(C#N)c3)cncc2-c2nc3cccc(F)c3[nH]2)C1 (centres unmarked)
tested_target: UniProt:P35346
pEC50: > 8.00

compound: Cn1c(-c2cncc(-c3cccc(C#N)c3)c2N2CC[C@](C)(N)C2)nc2c(F)cccc21
tested_target: UniProt:P35346
pEC50: > 8.00

compound: N#Cc1cccc(-c2cncc(-c3nc4c(F)cccc4[nH]3)c2N2CC(N)C(C(F)(F)F)C2)c1 (centres unmarked)
tested_target: UniProt:P35346
pEC50: 6.00 to 7.00

Q: Answer with the recorded pEC50 for the compound listed here: `N#Cc1cccc(-c2cncc(-c3nc4cccc(F)c4[nH]3)c2N2CC[C@H](N)C2)c1`
A: > 8.00

Q: Please look at this compound and report its pEC50: `NCC1CN(c2c(-c3cc(Cl)cc(Cl)c3)cncc2-c2nc3cc(F)cc(F)c3[nH]2)C1`
A: > 8.00

---

tested_target: human somatostatin receptor subtype 5 (Homo sapiens)
Sequence (P35346 whole entry): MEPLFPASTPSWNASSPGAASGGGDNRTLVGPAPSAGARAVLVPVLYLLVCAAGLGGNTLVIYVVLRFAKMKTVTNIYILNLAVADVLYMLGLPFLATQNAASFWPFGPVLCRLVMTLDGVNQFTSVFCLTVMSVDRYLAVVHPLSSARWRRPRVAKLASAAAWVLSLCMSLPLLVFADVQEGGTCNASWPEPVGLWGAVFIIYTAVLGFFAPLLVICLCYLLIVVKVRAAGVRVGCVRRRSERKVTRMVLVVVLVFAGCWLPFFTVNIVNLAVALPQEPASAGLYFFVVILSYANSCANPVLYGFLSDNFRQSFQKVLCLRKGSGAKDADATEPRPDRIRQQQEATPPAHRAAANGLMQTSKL
experimental_details: cAMP assay for SST5R (inhibition of cAMP via human SST5 receptor)
run_parameters: SST5 over SST2, class symbols
readout: Fold selectivity for SST5 vs SST2

compound: Cc1cc(F)cc(-c2cncc(-c3nc4c(F)cc(F)cc4[nH]3)c2N2CC(CN)C2)c1
tested_target: human somatostatin receptor subtype 5 (Homo sapiens)
meas_value: +++ (+++=≥500)
--
compound: COc1cccc(-c2cncc(-c3nc4cccc(F)c4[nH]3)c2N2CCC(C)(N)C2)c1 (centres unmarked)
tested_target: human somatostatin receptor subtype 5 (Homo sapiens)
meas_value: +++ (+++=≥500)
--
compound: CC1(N)CCN(c2c(-c3cccc(OC(F)(F)F)c3)cncc2-c2nc3cccc(F)c3[nH]2)C1 (centres unmarked)
tested_target: human somatostatin receptor subtype 5 (Homo sapiens)
meas_value: +++ (+++=≥500)
